# Test system: MCF-10A
# assay_method_text: normalised response (% of control), CellTox Green; higher = less cell death (100 = DMSO, 0 = benzethonium chloride kill control)
# assay_conditions: incubation time: 72 h
measured_quantity: normalised response (%)
Give the value in % but do not write % after it.

Field: example entries. Status: answers known.
molecule | unit_label | normalised response
CN(C)CCN1C(=O)c2cccc3cc(N)cc(c23)C1=O [Amonafide] (1000 nM) | % | 100
Cc1ccc(NC(=O)c2ccc(CN3CCN(C)CC3)cc2)cc1Nc1nccc(-c2cccnc2)n1 [Imatinib] (10000 nM) | % | 65.1
c1ccc([C@H]2CN3CCSC3=N2)cc1 [Levamisole] (10000 nM) | % | 67.3
COc1ccccc1S(=O)(=O)Nc1ccc2c(c1)CN(C)C(=O)N2 [PFI-1] (10000 nM) | % | 125
Nc1ncnc2c1c(COc1cccc(Cl)c1)nn2C1CCOCC1 (10000 nM) | % | 86.3

Data request: Specify reported normalised response for the molecule shown: CN1CCN(CCOc2cc(OC3CCOCC3)c3c(Nc4c(Cl)ccc5c4OCO5)ncnc3c2)CC1 [Saracatinib] (100 nM)
Data returned: 89.4

Data request: Specify reported normalised response for the molecule shown: Cn1cncc1[C@@](N)(c1ccc(Cl)cc1)c1ccc2c(c1)c(-c1cccc(Cl)c1)cc(=O)n2C [Tipifarnib] (10000 nM)
Data returned: 92.6
